# AUC per entry
Tested on: Mus musculus
ASSAY PROCEDURE: AUC (0 to 24 hrs) in DBA/2J mouse assessed as metabolite 13c at 10 mg/kg, po
Type: ADME, organism-based
Set-up: dose 10 mg/kg, time < 24 hr, route oral
ASSAY CONTEXT: in vivo

ITEM SMILES	AUC, µM·h
CN[C@@](C)(CO[C@H]1[C@H](n2nnc(N)n2)C[C@@]23COCC1(C)[C@@H]2CC[C@H]1C3=CC[C@@]2(C)[C@H](C(=O)O)[C@@](C)([C@H](C)C(C)C)CC[C@]12C)C(C)C	0.005
CCN[C@@](C)(CO[C@H]1[C@H](n2nnc(N)n2)C[C@@]23COCC1(C)[C@@H]2CC[C@H]1C3=CC[C@@]2(C)[C@H](C(=O)O)[C@@](C)([C@H](C)C(C)C)CC[C@]12C)C(C)C	0.29
CCCN[C@@](C)(CO[C@H]1[C@H](n2nnc(N)n2)C[C@@]23COCC1(C)[C@@H]2CC[C@H]1C3=CC[C@@]2(C)[C@H](C(=O)O)[C@@](C)([C@H](C)C(C)C)CC[C@]12C)C(C)C	0.36
CC(C)[C@@H](C)[C@@]1(C)CC[C@]2(C)[C@H]3CC[C@H]4C5(C)COC[C@@]4(C[C@@H](n4nnc(N)n4)[C@@H]5OC[C@@](C)(C(C)C)N(C)C)C3=CC[C@@]2(C)[C@@H]1C(=O)O	0.11

---

# bioavailability per entry
ASSAY PROCEDURE: Oral bioavailability in mouse
Assay type: ADME, organism-based
ASSAY CONTEXT: in vivo
VALUE KIND: bioavailability (%)

ITEM SMILES	VALUE KIND	UNIT LABEL	TEST RESULT
CC(=O)O[C@@H]1C[C@@]23COCC(C)([C@H]1OC[C@@](C)(N)C(C)C)[C@@H]2CC[C@H]1C3=CC[C@@]2(C)[C@H](C(=O)O)[C@@](C)([C@H](C)C(C)C)CC[C@]12C	bioavailability	%	31
CC(C)[C@@H](C)[C@@]1(C)CC[C@]2(C)[C@H]3CC[C@H]4C5(C)COC[C@@]4(C[C@@H](n4nnc(N)n4)[C@@H]5OC[C@](C)(N)C(C)C)C3=CC[C@@]2(C)[C@@H]1C(=O)O	bioavailability	%	14
CC(=O)O[C@@H]1C[C@@]23COCC(C)([C@H]1OC[C@](C)(N)C(C)C)[C@@H]2CC[C@H]1C3=CC[C@@]2(C)[C@H](C(=O)O)[C@@](C)([C@H](C)C(C)C)CC[C@]12C	bioavailability	%	39
